Readout: melting point

I'd like to know its melting point. The compound in question is C=CCC(NC(=O)c1ccc(OC)cc1)C(=O)OCC (stereo unspecified)
76 to 78 °C

O=C(C(=O)N(CCN1CCOCC1)S(=O)(=O)C(F)(F)F)N(CCN1CCOCC1)S(=O)(=O)C(F)(F)F ?
62 to 64 °C

Cn1nc(-c2cc([N+](=O)[O-])cc([N+](=O)[O-])c2)cc1O ?
230 to 231 °C

O=C(O)c1ccc(-c2n[nH]c3c2Cc2ccccc2-3)cc1 ?
> 320 °C

CC1(C)CC(=O)C2=C(C1)NC1=C(C(=O)CC(C)(C)C1)C2c1cccc(Oc2ccc(Cl)cc2)c1 ?
238 to 239 °C

COC(=O)C1Cc2c([nH]c3ccccc23)C(c2ccc3c(c2)OCO3)N1C(=O)CCl (stereo unspecified) ?
207 to 208 °C

CCCNC(=O)CSc1nc(Cl)cc(Nc2cccc(C)c2C)n1 ?
146 to 148 °C

CC(c1cc2ncnc(Cl)c2[nH]1)c1oc2ccccc2c(=O)c1-c1cccc(F)c1 (stereo unspecified) ?
166 to 168 °C

CCCCCCCC[Si](C)(C)CCSCCNC(=O)n1cc(F)c(=O)[nH]c1=O ?
60 to 61 °C

COP(=O)(Cc1nc2cc3c(cc2nc1C(=O)OC(C)(C)C)OC(C)(C)O3)OC ?
86.3 to 87.9 °C

---

Readout: melting point

Please review the following examples before continuing.
| Compound | Readout | Result |
| --- | --- | --- |
| CC(=O)N1CC(=Cc2ccncc2)C(=O)c2ccccc21 | melting point | 170 °C |
| COc1cc2c(c(OC)c1OC)-c1ccc(NC(=O)C(C)NC(=O)OCc3ccccc3)cc1C(NC(C)=O)CC2 (stereo unspecified) | melting point | 140 to 141 °C |
| CS(=O)(=O)C(=C1CN(C(c2ccccc2)c2ccccc2)C1)c1cc(Cl)ccc1Cl | melting point | 202 °C |

I'd like to know its melting point. The compound in question is COc1c(F)cc2[nH]c(=O)c(=O)[nH]c2c1[N+](=O)[O-]
290 to 292 °C

CC12CCC(O)CC1CCC1C2CCC2(C)C(=O)CCC12F (stereo unspecified) ?
201 to 202 °C

CO/C=C(/C(=O)OC)c1ccccc1C=O ?
67 to 69 °C

O=C(Nc1cc(Cl)ccc1N1CCCCC1)c1cnn2cc(O)cnc12 ?
> 300 °C

CCCc1[nH]c2cc(C(N)=O)ccc2c1C(=O)COC ?
165 to 167 °C

---

Readout: melting point

Please review the following examples before continuing.
| Compound | melting point |
| --- | --- |
| c1ccc(C(c2ccccc2)N2CCN(Cc3cscn3)CC2)cc1 | 114 to 116 °C |
| CCC(CC)Nc1c(C)cnc(Oc2c(C)cc(Cl)cc2C)c1N | 72 to 74 °C |
| O=c1[nH]c(-c2ccc(CCCCN3CCN(c4nsc5ccccc45)CC3)cc2)cs1 | 140 to 145 °C |
| CCNCC1CCN(c2c(F)c(C)c3c(=O)c(C(=O)O)cn(C4CC4)c3c2F)C1 (stereo not given) | 198 to 199 °C |

I'd like to know its melting point. The compound in question is COc1ccc(O)cc1/C=C/C(=O)CC(=O)/C=C/c1cc(O)ccc1Br
90 to 96 °C

Cc1cc(C2=NOC(c3cc(Cl)cc(Cl)c3)(C(F)(F)F)C2)ccc1C(=O)Nc1ncc(Br)cn1 (stereo not given) ?
178 to 181 °C

COC(=O)C1CCC2C3CC(=O)C4(O)CC(O)CCC4(C)C3CCC12C (stereo not given) ?
258 to 260 °C

COC(=O)CCCC#CCC1C(=O)CCCC1=O ?
108 to 110 °C

CCCCc1oc2ccccc2c1C(=O)N(C)Cc1ccc(-c2ccc(OCC(=O)O)c(Br)c2)cc1 ?
72 to 78 °C

O=C(OCc1ccccc1)N1CCSC1=S ?
72 °C
